Source: patent US5204345A

Quick reference for IC50 among some molecules
- System: spleen cells from BALB/c and C57BL/6 mice
- experimentalDetails: 3H-thymidine uptake induced by the mixed lymphocyte reaction of spleen cells
- Format: cell-based, mouse (BALB/c and C57BL/6)
- studyConditions: Mus musculus; mixed lymphocyte reaction; in vitro; read-out: 50% inhibition of 3H-thymidine uptake, concentration
Write the number in nM without appending the unit.

CO[C@@H]1[C@@H](OC(C)=O)CC[C@]2(CO2)[C@H]1[C@@]1(C)O[C@@H]1CC=C(C)C [Example 5, 6-O-acetyl-6-epifumagillol]
300

Would you kindly look at the next entry?
(Q) Tell me measured IC50 for CO[C@@H]1[C@@H](OC(=O)Oc2ccccc2)CC[C@]2(CO2)[C@H]1[C@@]1(C)O[C@@H]1CC=C(C)C [Example 8, 6-O-phenoxycarbonyl-6-epifumagillol] please.
(A) 10

---

- System: human umbilical vein endothelial cells
- experimentalDetails: inhibition of human umbilical vein endothelial cell growth (MTT)
- Format: cell-based
- studyConditions: 120 h, rFGF 2 ng/ml, 5-day culture, MTT OD590, read-out: IC50, inhibiting endothelial cell growth
readout: IC50

Look over these answered cases.
CO[C@@H]1[C@@H](OC=O)CC[C@]2(CO2)[C@H]1[C@@]1(C)O[C@@H]1CC=C(C)C [Example 1, 6-O-formyl-6-epifumagillol]
< 0.08 ng/mL
CO[C@@H]1[C@@H](OC(C)=O)CC[C@]2(CO2)[C@H]1[C@@]1(C)O[C@@H]1CC=C(C)C [Example 5, 6-O-acetyl-6-epifumagillol]
1.91 ng/mL

(Q) Give IC50 for the following compound: CO[C@@H]1[C@@H](OC(=O)Oc2ccccc2)CC[C@]2(CO2)[C@H]1[C@@]1(C)O[C@@H]1CC=C(C)C [Example 8, 6-O-phenoxycarbonyl-6-epifumagillol]
(A) 0.166 ng/mL

(Q) Input CO[C@@H]1[C@@H](OC)CC[C@]2(CO2)[C@H]1[C@@]1(C)O[C@@H]1CC=C(C)C [Example 3, 6-O-methyl-6-epifumagillol] , output reported IC50.
(A) 9.82 ng/mL

---

- System: human umbilical vein endothelial cells
- experimentalDetails: inhibition of human umbilical vein endothelial cell growth (MTT)
- Type: cell-based
- studyConditions: 120 h, rFGF 2 ng/ml, 5-day culture, MTT OD590, read-out: IC50, inhibiting endothelial cell growth
Classify: MET when IC50 is strictly less than 5 ng/mL; NOT MET when IC50 is not.

# count of solved cases: 5
CO[C@@H]1[C@@H](OC(=O)c2ccccc2)CC[C@]2(CO2)[C@H]1[C@@]1(C)O[C@@H]1CC=C(C)C [Example 6, 6-O-benzoyl-6-epifumagillol]
MET
CO[C@@H]1[C@@H](OS(C)(=O)=O)CC[C@]2(CO2)[C@H]1[C@@]1(C)O[C@@H]1CC=C(C)C [Example 12, 6-O-methanesulfonyl-6-epifumagillol]
NOT MET
CO[C@@H]1[C@@H](OC(=O)CCC(=O)O)CC[C@]2(CO2)[C@H]1[C@@]1(C)O[C@@H]1CC=C(C)C [Example 7, 6-O-(3-carboxypropionyl)-6-epifumagillol]
NOT MET
CO[C@@H]1[C@@H](OC(=O)N2CCOCC2)CC[C@]2(CO2)[C@H]1[C@@]1(C)O[C@@H]1CC=C(C)C [Example 11, 6-O-morpholinocarbonyl-6-epifumagillol]
MET
CO[C@@H]1[C@@H](OC(N)=O)CC[C@]2(CO2)[C@H]1[C@@]1(C)O[C@@H]1CC=C(C)C [Example 9, 6-O-carbamoyl-6-epifumagillol]
MET

(Q) In the record for CO[C@@H]1[C@@H](O)CC[C@]2(CO2)[C@H]1[C@@]1(C)O[C@@H]1CC=C(C)C [Example 2, 6-epifumagillol] , is IC50 less than 5 ng/mL?
(A) MET
